Test: Aqueous solubility of the drug substance
Details: aqueous solution, 25 °C, pH 1.7, simulated gastric fluid
Counter-ions that a name gives are not always drawn.
Property name: solubility

Query: What value of solubility has been reported for the following compound? CCNC(C)Cc1cccc(C(F)(F)F)c1 (stereo not shown) [fenfluramine hydrochloride]
Result: ~25 mg/mL

====

Assay: Aqueous solubility of the drug substance
Details: aqueous solution, 25 °C, pH 6.7, aqueous buffer
Structures can show the parent of a compound that is named as a salt.
Property name: solubility

Query: // lookup solubility for CCNC(C)Cc1cccc(C(F)(F)F)c1 (stereo not shown) [fenfluramine hydrochloride]
Result: > 50 mg/mL
